Entries and their IC50
measured.on: CDK4 (Homo sapiens, UniProt P11802)
Construct: purchased Carna Company
Sequence (P11802 whole entry): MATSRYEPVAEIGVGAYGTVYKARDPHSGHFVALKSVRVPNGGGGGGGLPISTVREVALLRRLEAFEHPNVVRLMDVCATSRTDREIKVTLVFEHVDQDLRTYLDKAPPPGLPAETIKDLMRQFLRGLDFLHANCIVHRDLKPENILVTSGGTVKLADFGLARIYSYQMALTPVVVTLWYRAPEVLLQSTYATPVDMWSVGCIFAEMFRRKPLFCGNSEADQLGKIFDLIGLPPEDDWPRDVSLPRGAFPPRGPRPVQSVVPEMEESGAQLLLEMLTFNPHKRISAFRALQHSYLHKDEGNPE
Sequence (P30281 whole entry partner): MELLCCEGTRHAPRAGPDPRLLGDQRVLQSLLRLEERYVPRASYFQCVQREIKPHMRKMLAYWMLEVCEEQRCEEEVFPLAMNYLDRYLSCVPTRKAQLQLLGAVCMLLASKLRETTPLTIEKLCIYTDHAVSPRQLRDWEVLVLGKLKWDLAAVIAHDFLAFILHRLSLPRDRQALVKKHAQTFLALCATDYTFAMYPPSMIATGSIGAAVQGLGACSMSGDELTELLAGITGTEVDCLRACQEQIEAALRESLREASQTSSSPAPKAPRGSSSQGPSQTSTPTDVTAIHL
test.description: CDK enzymology experiment in vitro, capillary mobility shift assay (MSA)
Type: biochemical
conditions.used: read-out: CDK4 (nM) inhibitory IC50

Observe how each entry below is paired with its result.
{"columns": ["compound", "IC50"],
 "data": [
  ["Cn1cc(S(=O)(=O)N2CCC(Nc3cc(O[C@H]4CCOC4)c(C#N)cn3)CC2)cn1 [Compound 158]", "10 to 50 nM"],
  ["Cc1cc(S(=O)(=O)N2CCC(Nc3ncc(C(F)(F)F)c(O[C@H]4CCOC4)n3)CC2)ccc1C1CCCNC1 (stereo partly shown) [Compound 192]", "0.5 to 2.5 nM"],
  ["Cn1cc(S(=O)(=O)N2CCC(Nc3ncc(C#N)c(N(C4CCCC4)C4CC4)n3)CC2)cn1 [Compound 82]", "2.5 to 10 nM"]
]}

query: What does the data say about its IC50? Entry: N#Cc1cnc(NC2CCN(S(=O)(=O)c3ccc(Br)cc3)CC2)nc1N[C@H]1CCOC1 [Compound 106]
result: 100 to 1000 nM

query: And the next one, O=S(=O)(c1ccc(C2=CCNCC2)c(F)c1)N1CCC(Nc2ncc(C(F)(F)F)c(O[C@H]3CCOC3)n2)CC1 [Compound 121] ?
result: 0.5 to 2.5 nM

query: Next entry: C[C@H]1CN(c2ccc(S(=O)(=O)N3CCC(Nc4ncc(C(F)(F)F)c(O[C@H]5CCOC5)n4)CC3)cc2)CCN1 [Compound 186]
result: 0.5 to 2.5 nM

query: Could you do the same for O=S(=O)(c1ccc([C@H]2CCNC2)cc1)N1CCC(Nc2ncc(C(F)(F)F)c(O[C@H]3CCOC3)n2)CC1 (single isomer, unassigned) [Compound 152] , please?
result: 0.5 to 2.5 nM
